- experimental target: Nav 1.5 (Homo sapiens (Human), UniProt Q14524)
- Sequence (Q14524 whole entry): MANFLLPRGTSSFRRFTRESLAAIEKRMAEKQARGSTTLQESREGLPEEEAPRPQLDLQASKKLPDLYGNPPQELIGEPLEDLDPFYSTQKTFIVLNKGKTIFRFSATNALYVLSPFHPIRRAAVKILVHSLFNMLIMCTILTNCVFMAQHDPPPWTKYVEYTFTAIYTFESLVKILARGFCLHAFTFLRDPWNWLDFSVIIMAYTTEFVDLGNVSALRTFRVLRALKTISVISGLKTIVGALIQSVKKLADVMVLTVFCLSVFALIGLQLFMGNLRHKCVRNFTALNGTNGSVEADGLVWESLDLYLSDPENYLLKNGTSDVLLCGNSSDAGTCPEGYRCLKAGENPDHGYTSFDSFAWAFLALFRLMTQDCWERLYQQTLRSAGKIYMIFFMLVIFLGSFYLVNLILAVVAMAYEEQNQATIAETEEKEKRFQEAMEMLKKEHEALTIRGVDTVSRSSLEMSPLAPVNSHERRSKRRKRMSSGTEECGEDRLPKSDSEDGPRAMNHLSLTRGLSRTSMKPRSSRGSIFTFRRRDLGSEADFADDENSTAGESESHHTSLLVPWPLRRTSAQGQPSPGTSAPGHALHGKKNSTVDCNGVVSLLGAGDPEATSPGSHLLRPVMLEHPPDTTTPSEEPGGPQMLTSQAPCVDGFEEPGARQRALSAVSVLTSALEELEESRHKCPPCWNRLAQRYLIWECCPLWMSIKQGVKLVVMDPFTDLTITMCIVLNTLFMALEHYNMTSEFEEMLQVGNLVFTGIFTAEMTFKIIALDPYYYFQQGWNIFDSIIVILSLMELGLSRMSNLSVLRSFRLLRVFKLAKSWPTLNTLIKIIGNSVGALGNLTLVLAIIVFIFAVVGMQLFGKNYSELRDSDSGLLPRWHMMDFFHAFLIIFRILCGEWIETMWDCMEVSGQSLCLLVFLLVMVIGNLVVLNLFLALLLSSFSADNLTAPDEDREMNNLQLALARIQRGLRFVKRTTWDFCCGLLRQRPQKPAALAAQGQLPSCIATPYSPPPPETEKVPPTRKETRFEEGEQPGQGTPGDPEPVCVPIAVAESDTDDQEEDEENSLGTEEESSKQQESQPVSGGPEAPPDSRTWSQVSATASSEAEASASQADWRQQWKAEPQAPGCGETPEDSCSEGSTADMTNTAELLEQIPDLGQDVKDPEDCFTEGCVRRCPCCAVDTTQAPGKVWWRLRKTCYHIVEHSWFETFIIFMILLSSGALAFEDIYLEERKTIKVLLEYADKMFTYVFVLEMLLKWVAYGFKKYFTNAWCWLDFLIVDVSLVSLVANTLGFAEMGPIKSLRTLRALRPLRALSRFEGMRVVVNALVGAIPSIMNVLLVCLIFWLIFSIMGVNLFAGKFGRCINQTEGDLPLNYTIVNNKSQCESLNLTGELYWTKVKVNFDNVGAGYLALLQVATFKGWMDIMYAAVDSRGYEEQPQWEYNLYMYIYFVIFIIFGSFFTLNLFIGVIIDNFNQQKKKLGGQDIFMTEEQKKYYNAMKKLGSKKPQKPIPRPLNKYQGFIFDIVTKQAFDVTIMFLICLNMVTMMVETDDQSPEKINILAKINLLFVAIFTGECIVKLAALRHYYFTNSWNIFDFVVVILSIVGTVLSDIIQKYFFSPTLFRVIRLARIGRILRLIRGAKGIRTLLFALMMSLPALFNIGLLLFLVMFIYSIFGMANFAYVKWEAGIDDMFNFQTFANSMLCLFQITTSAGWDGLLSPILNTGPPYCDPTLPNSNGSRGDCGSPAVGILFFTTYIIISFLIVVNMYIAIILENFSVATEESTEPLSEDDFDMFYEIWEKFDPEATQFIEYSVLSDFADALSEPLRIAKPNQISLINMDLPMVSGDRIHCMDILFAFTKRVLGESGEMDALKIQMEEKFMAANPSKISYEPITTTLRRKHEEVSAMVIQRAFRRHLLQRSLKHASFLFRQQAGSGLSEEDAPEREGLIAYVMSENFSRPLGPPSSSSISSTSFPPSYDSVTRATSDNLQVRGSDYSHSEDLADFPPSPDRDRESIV
- test description: Inhibition of sodium channels, Red Membrane Potential Dye FLIPR assay, veratridine depolarization
- Format: cell-based
- experimental parameters: HEK-293 cells overexpressing the channel; read-out: Nav1.5 IC50 (bound given in μM)
endpoint: IC50

molecule=O=S(=O)(Nc1ncccn1)c1ccc2c(c1)OCC[C@H]2c1ccc(C(F)(F)F)cc1N1CCOCC1 assay_value="> 10 µM"
molecule=Cc1ccc(-c2cc(C(F)(F)F)ccc2[C@H]2CCOc3cc(S(=O)(=O)Nc4ncccn4)ccc32)cn1 assay_value="> 10 µM"
molecule="O=C1OCCN1c1cc(C(F)(F)F)ccc1[C@H]1CCOc2cc(S(=O)(=O)Nc3cccc(F)n3)ccc21 (racemic)" assay_value="> 10 µM"
molecule="O=S(=O)(Nc1ncccn1)c1ccc2c(c1)OCCC2c1ccc(C(F)(F)F)cc1O[C@H]1CCOC1 (stereo partly shown)" assay_value="> 10 µM"
molecule=O=S(=O)(Nc1ncccn1)c1ccc2c(c1)OCC[C@H]2c1ccc(C(F)(F)F)cc1OC1CCOCC1 assay_value="> 10 µM"
molecule="O=S1(=O)CCN(c2cc(C(F)(F)F)ccc2[C@H]2CCOc3cc(S(=O)(=O)Nc4cccnn4)ccc32)CC1 (racemic)" assay_value="> 10 µM"
molecule="O=C(O)c1ccc(-c2cc(C(F)(F)F)ccc2[C@H]2CCOc3cc(S(=O)(=O)Nc4cccc(F)n4)ccc32)cc1 (racemic)" assay_value="> 10 µM"
molecule=O=S1(=O)CCN(c2cc(C(F)(F)F)ccc2[C@H]2CCOc3cc(S(=O)(=O)Nc4ncccn4)ccc32)CC1 assay_value="> 10 µM"
molecule=O=S(=O)(Nc1cccnn1)c1ccc2c(c1)OCC[C@@H]2c1ccc(C(F)(F)F)cc1-n1ccnn1 assay_value="> 10 µM"
molecule=COc1cc(C(F)(F)F)ccc1[C@H]1CCOc2cc(S(=O)(=O)Nc3ncccn3)ccc21 assay_value="> 10 µM"
molecule="COCCc1cc(C(F)(F)F)ccc1[C@H]1CCOc2cc(S(=O)(=O)Nc3cccnn3)ccc21 (racemic)" assay_value="> 10 µM"
molecule=Cc1nc(-c2cc(C(F)(F)F)ccc2[C@@H]2CCOc3cc(S(=O)(=O)Nc4cccnn4)ccc32)co1 assay_value="> 10 µM"
molecule=O=S(=O)(Nc1ccncn1)c1ccc2c(c1)OCC[C@H]2c1ccc(C(F)(F)F)cc1-c1ccc(F)cc1 assay_value="> 10 µM"
molecule=Cn1nccc1-c1cc(C(F)(F)F)ccc1[C@H]1CCOc2cc(S(=O)(=O)Nc3ccncn3)ccc21 assay_value="> 10 µM"
molecule="O=S(=O)(Nc1cccnn1)c1ccc2c(c1)OCC[C@@H]2c1ccc(C(F)(F)F)cc1Cl (racemic)" assay_value="> 10 µM"
molecule="COCCc1cc(C(F)(F)F)ccc1[C@H]1CCOc2cc(S(=O)(=O)Nc3ccncn3)ccc21 (racemic)" assay_value="> 10 µM"
molecule=Cn1nccc1-c1cc(Cl)ccc1[C@@H]1CCOc2cc(S(=O)(=O)Nc3cccc(F)n3)ccc21 assay_value="> 10 µM"
molecule=Cc1ccnc(NS(=O)(=O)c2ccc3c(c2)OCC[C@@H]3c2ccc(C(F)(F)F)cc2-c2ccnn2C)n1 assay_value="> 10 µM"
molecule="O=S(=O)(Nc1cccc(F)n1)c1ccc2c(c1)OCC[C@@H]2c1ccc(C(F)(F)F)cc1CCF (racemic)" assay_value="> 10 µM"
molecule=Cc1nc(-c2cc(C(F)(F)F)ccc2[C@@H]2CCOc3cc(S(=O)(=O)Nc4ccncn4)ccc32)cs1 assay_value="> 10 µM"
molecule=O=C1COCCN1c1cc(C(F)(F)F)ccc1[C@@H]1CCOc2cc(S(=O)(=O)Nc3ncccn3)ccc21 assay_value="> 10 µM"
molecule=O=S1(=O)CCN(c2cc(C(F)(F)F)ccc2[C@@H]2CCOc3cc(S(=O)(=O)Nc4ncccn4)ccc32)CC1 assay_value="> 10 µM"
molecule=Cc1nc(-c2cc(C(F)(F)F)ccc2[C@@H]2CCOc3cc(S(=O)(=O)Nc4ncccn4)ccc32)cs1 assay_value="> 10 µM"
molecule=CC(C)Oc1ccc(-c2cc(C(F)(F)F)ccc2[C@H]2CCOc3cc(S(=O)(=O)Nc4ncc(F)cn4)ccc32)cn1 assay_value="> 10 µM"
molecule=O=S(=O)(Nc1ccncn1)c1ccc2c(c1)OCC[C@H]2c1ccc(C(F)(F)F)cc1OC1CCOCC1 assay_value="> 10 µM"
molecule=O=S(=O)(Nc1ncccn1)c1ccc2c(c1)OCC[C@H]2c1ccc(C(F)(F)F)cc1-c1ccc(F)cn1 assay_value="> 10 µM"
molecule=Cc1ccc(-c2cc(C(F)(F)F)ccc2[C@@H]2CCOc3cc(S(=O)(=O)Nc4ncccn4)ccc32)cn1 assay_value="> 10 µM"
molecule=O=S(=O)(Nc1cccc(F)n1)c1ccc2c(c1)OCC[C@H]2c1ccc(C(F)(F)F)cc1-c1ccc(F)cc1 assay_value="> 10 µM"

meta.source: patent US10239869B2
